Entry source: patent US10689377B2

System tested: KRas G12C (Homo sapiens, UniProt P01116, G12C)
Sequence (P01116 1-188 isoform P01116-2 G12C): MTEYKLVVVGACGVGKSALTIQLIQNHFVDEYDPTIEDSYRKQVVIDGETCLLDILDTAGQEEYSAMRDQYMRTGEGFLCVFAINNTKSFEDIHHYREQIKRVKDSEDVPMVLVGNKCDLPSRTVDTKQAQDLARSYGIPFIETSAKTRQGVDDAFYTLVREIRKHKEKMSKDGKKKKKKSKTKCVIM
Procedure text: Cellular inhibition of KRas G12C measured by Phospho-ERK in NCI-H358 cells
Assay type: cell-based
Assay conditions: pERK(Thr202/Tyr204) normalized with GAPDH, NCI-H358 cells, 3 hours; read-out: IC50
pIC50: −log10 of the molar value. Where a name gives a salt, the structure may show the parent alone.
Quantity name: pIC50

Please look up its pIC50: `Cc1cccc2cccc(N3CCc4c(nc(OC[C@@H]5CCCN5C)nc4N4CCN(C(=O)/C=C/CO)[C@@H](CC#N)C4)C3)c12` 6.00 to 10.00

Please look up its pIC50: `CN(C)C/C=C(/F)C(=O)N1CCN(c2nc(OC[C@@H]3CCCN3C)nc3c2CCN(c2cccc4cccc(Cl)c24)C3)C[C@@H]1CC#N` < 6.00

Please look up its pIC50: `C=CC(=O)N1CCN(c2nc(OC[C@@H]3[C@H](F)CCN3C)nc3c2CCN(c2cccc4ccccc24)C3)C[C@@H]1CC#N` 6.00 to 10.00

Please look up its pIC50: C=CC(=O)N1CCN(c2nc(OCCCCN3CCOCC3)nc3c2CCN(c2cc(O)cc4ccccc24)C3)CC1 [Example 35, trifluoroacetate] < 6.00

Please look up its pIC50: `Cc1cccc(N2CCc3c(nc(OC[C@@H]4C[C@@H](F)CN4C)nc3N3CCN(C(=O)/C=C/CN(C)C)[C@@H](CC#N)C3)C2)c1C` 6.00 to 10.00

* * *

System tested: KRas G12C (Homo sapiens, UniProt P01116, G12C)
Procedure text: Cellular inhibition of KRas G12C measured by Phospho-ERK in NCI-H358 cells
Type: cell-based
Assay conditions: pERK(Thr202/Tyr204) normalized with GAPDH, NCI-H358 cells, 3 hours; read-out: IC50
Quantity name: IC50

Please look up its IC50: C=CC(=O)N1CCN(c2nc(OCCN3CCC(C#N)CC3)nc3c2CCN(c2cc(O)cc4ccccc24)C3)CC1 [Example 81] > 1000 nM

Please look up its IC50: C=CC(=O)N1CCN(c2nc(OC[C@@H]3CCCN3C)nc3c2CCN(c2cccc4ccc(Cl)cc24)C3)CC1CC#N (stereo partly drawn) [Example 286] 0.1 to 1000 nM

Please look up its IC50: C=CC(=O)N1CCN(c2nc(OC[C@@H]3C[C@@H](OC)CN3C)nc3c2CCN(c2cccc4ccccc24)C3)C[C@@H]1CC#N [Example 327] 0.1 to 1000 nM

* * *

System tested: KRas G12C (Homo sapiens, UniProt P01116, G12C)
Procedure text: Cellular inhibition of KRas G12C measured by Phospho-ERK in NCI-H358 cells
Type: cell-based
Assay conditions: pERK(Thr202/Tyr204) normalized with GAPDH, NCI-H358 cells, 3 hours; read-out: IC50
Experimental: Cells were plated in poly-D-Lysine coated 96-well plates at a concentration of 50,000 cells/well and allowed to attach for 8-12 hours. Diluted compounds were then added at a final concentration of 0.5% DMSO. […] The amount Phospho-ERK was determined using an antibody specific for the phosphorylated form of ERK and compared to the amount of GAPDH. […] The pERK(Thr202/Tyr204) signal was normalized with the GAPDH signal and percent of DMSO control values were calculated. […]
Kindly state IC50 for each of the entries shown.

Provide the documented IC50 with KRas G12C (Homo sapiens, UniProt P01116, G12C) as the system for `C=CC(=O)N1CCN(c2nc(OCCNC(C)=O)nc3c2CCN(c2cc(O)cc4ccccc24)C3)CC1` > 1 µM

Provide the documented IC50 with KRas G12C (Homo sapiens, UniProt P01116, G12C) as the system for `C=C(F)C(=O)N1CCN(c2nc(OC[C@H]3C[C@@H](OC)CN3C)nc3c2CCN(c2cccc4cccc(Cl)c24)C3)C[C@@H]1CC#N` 0.0001 to 1 µM

Provide the documented IC50 with KRas G12C (Homo sapiens, UniProt P01116, G12C) as the system for `C=C(F)C(=O)N1CCN(c2nc(OC[C@@H]3CCCN3C)nc3c2CCN(c2cccc4ccnc(C)c24)C3)C[C@@H]1CC#N` > 1 µM

Provide the documented IC50 with KRas G12C (Homo sapiens, UniProt P01116, G12C) as the system for `C=CC(=O)N1CCN(c2nc(OCCCN3CCCC3)nc3c2CCN(c2cc(O)cc4ccccc24)C3)CC1` 0.0001 to 1 µM

Provide the documented IC50 with KRas G12C (Homo sapiens, UniProt P01116, G12C) as the system for `C=CC(=O)N1CCN(c2nc(OC[C@@H]3[C@@H](O)CCN3C)nc3c2CCN(c2cccc4ccccc24)C3)C[C@@H]1CC#N` 0.0001 to 1 µM

Provide the documented IC50 with KRas G12C (Homo sapiens, UniProt P01116, G12C) as the system for C=CC(=O)N1CCN(c2nc(OC[C@@H]3C[C@@H](F)CN3C)nc3c2CCN(c2cccc4ccccc24)C3)CC1CC#N (some centres unmarked) 0.0001 to 1 µM

Provide the documented IC50 with KRas G12C (Homo sapiens, UniProt P01116, G12C) as the system for C=CC(=O)N1CCN(c2nc(OC[C@@H]3CCCN3C)nc3c2CCN(c2cccc4ncccc24)C3)CC1CC#N (some centres unmarked) [Example 294] > 1 µM

Provide the documented IC50 with KRas G12C (Homo sapiens, UniProt P01116, G12C) as the system for `C=CC(=O)N1CCN(c2nc(N3CCCC3)nc3c2CCN(c2cc(O)cc4ccccc24)C3)CC1` > 1 µM

Provide the documented IC50 with KRas G12C (Homo sapiens, UniProt P01116, G12C) as the system for `C=C(F)C(=O)N1CCN(c2nc(OCCN(C)C)nc3c2CCN(c2cccc4cccc(C)c24)C3)C[C@@H]1CC#N` 0.0001 to 1 µM

Provide the documented IC50 with KRas G12C (Homo sapiens, UniProt P01116, G12C) as the system for `C=CC(=O)N1CCN(c2nc(OCCN3CCC(F)(F)CC3)nc3c2CCN(c2cc(O)cc4ccccc24)C3)CC1` > 1 µM

Provide the documented IC50 with KRas G12C (Homo sapiens, UniProt P01116, G12C) as the system for `C=CC(=O)N1CCN(c2nc(O[C@H](C)CN3CC[C@H](OC)C3)nc3c2CCN(c2cc(O)cc4ccccc24)C3)CC1` 0.0001 to 1 µM
